molecular target: NADPH oxidase 4 (Homo sapiens); experiment: NOX4-dependent H2O2 signal modulators, primary screen, NOX inhibitor project, cell-based, HEK293-NOX4, tetracycline-induced, Amplex Red fluorescence (AID 1160); conditions: 45 min, higher = more signal, called active from +8 up or from −8 down
Decide using z-score: a value greater than or equal to 0.8 is T, a smaller one is F.

molecule	group
C=C(CCCC)/C(=C/C[C@H](OC(C)=O)c1ccccc1OCCO)c1cc(C(=O)OC)ccc1OC	F

Query molecule follows.
Task: Is it the case that CC(C)C[C@@H]1NC(=O)[C@@H]2C[C@H](C(=O)NCc3ccc(F)cc3)[C@H](c3cccc(OCCO)c3)N2C1=O has z-score reaching or exceeding 0.8?
Result: T

---

test: small-molecule binders of probe aNOTCH2, primary screen, biochemical, small-molecule microarray, 635/667 nm fluorescence (AID 1121); details: higher = more signal;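 further: score merges feature fluorescence read at 667 nm with its signal to noise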
measuredQuantity: composite z-score
// no unit, no text: just the number

Example cases with answers are listed next.
compound	composite z-score
COc1cc(NN2C(C(O)c3ccco3)C=CC3C(=O)N(c4ccccc4)C(=O)C32)cc(OC)c1OC (centres undefined)	-0.139
CCOC(=O)[C@H]1C/C=C/C[C@H](C(=O)OCC)C(=O)O[C@H]2[C@@H](OC)O[C@H](CO)[C@@H](OC(=O)c3c(OC)cccc3OC)[C@@H]2OC1=O	-0.108
C=CCOC(=O)[C@@H]1[C@H]2C(=O)O[C@H](c3ccccc3)[C@H](c3ccccc3)N2[C@H](c2ccc(OCCOC(=O)[C@@H]3C[C@@H]4C(=O)NCC(=O)N4[C@@H]3c3ccc(O)cc3)cc2)[C@@]12C(=O)Nc1ccc(I)cc12	-0.108
CC(C)C[C@@H]1NC(=O)[C@@H]2C[C@H](C(=O)O)[C@H](c3cccc(OCCO)c3)N2C1=O	-0.164
CCCC[C@@H]1C[C@H]1[C@@H](NC(=O)c1ccco1)c1ccc(-c2ccccc2)cc1	0.0474
O=C1N[C@@H](Cc2ccccc2)C(=O)N2[C@@H]1C[C@@H](C(=O)O)[C@H]2c1cccc(OCCO)c1	-0.124

Task: composite z-score lookup needed for C=C(CCCC)C(=O)CC[C@@H](OC(=O)c1ccccc1-c1ccccc1C(=O)O)c1ccc(OCCO)cc1 , thanks.
Result: -0.125

Task: composite z-score lookup needed for CCCCCN1CC=CC23O[C@@H]4C=CCCOC(=O)C4[C@H]2C(=O)N(CCCCCO)[C@@H]3C1=O (some centres undefined) , thanks.
Result: -0.142

Task: composite z-score lookup needed for COCCOC(=O)N1C(=O)[C@@]2(c3cc(C#CCCO)ccc31)[C@H](C(=O)N1CCCCCCC1)[C@H]1C(=O)O[C@H](c3ccccc3)[C@H](c3ccccc3)N1[C@@H]2c1ccc(OCCO)cc1 , thanks.
Result: 0.833

---

biological target: Torsin-1A (Homo sapiens) (UniProt O14656); test: small-molecule binders of mutant TOR1A in lysate, primary screen, cell lysate, small-molecule microarray, COS7 lysate, 635/667 nm fluorescence (AID 1150); details: COS7 hTOR1A mutant lysate, 635 nm fluorescence, higher = more signal;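 further: score pools 667 nm emission and signal to noise measuring lysate protein binding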
Sequence (O14656 whole entry, looked up): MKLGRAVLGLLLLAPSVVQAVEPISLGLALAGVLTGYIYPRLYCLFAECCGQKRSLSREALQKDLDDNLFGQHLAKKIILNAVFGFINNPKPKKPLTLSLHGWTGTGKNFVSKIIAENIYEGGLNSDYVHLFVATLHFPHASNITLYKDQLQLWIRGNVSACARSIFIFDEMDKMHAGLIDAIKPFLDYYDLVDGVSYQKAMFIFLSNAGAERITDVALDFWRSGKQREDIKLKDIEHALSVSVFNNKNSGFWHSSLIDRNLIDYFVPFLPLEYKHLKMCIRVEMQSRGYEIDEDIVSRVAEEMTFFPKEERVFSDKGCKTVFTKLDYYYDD
measuredQuantity: composite z-score
// no unit, no text: just the number

Task: composite z-score lookup needed for COC(=O)[C@@]1(Cc2ccccc2)N=C(c2ccc(OCCCO)cc2)O[C@H]1c1ccccc1 , thanks.
Result: 1.74

Task: composite z-score lookup needed for CCOC(=O)C[C@H]1[C@H](OC(=O)c2ccc(C(=O)c3ccccc3)cc2)[C@@H](NC(=O)c2ccc3ccccc3c2)c2cc(OCCCO)ccc2N1C(=O)Cc1ccc(OC)cc1 , thanks.
Result: 0.16

---

Consider the following molecules and their measured composite z-score readings.
target: Carbonic anhydrase 2 (Homo sapiens) (UniProt P00918); assay: CAII small-molecule binders, profiling panel, biochemical, small-molecule microarray, Alexa647-labelled CAII (AID 1122); details: CAII-A647 binding fluorescence, higher = more signal
// no unit, no text: just the number

Example cases with answers are listed next.
molecule	composite z-score
CCCCCN1CC=CC23O[C@@H]4C=CCCOC(=O)C4[C@H]2C(=O)N(CCCCCO)[C@@H]3C1=O (some centres undefined)	0.846
C=CCNC(=O)[C@H]1[C@@H]2C(=O)O[C@@H](c3ccccc3)[C@@H](c3ccccc3)N2[C@@H](c2ccccc2OCCO)[C@]12C(=O)Nc1ccc(C#CCC(C(=O)OC)C(=O)OC)cc12	0.251
[N-]=[N+]=Nc1ccccc1[C@H]1OC(c2ccc(OCCCO)cc2)=N[C@@]1(CCS(=O)(=O)c1ccccc1)C(N)=O	0.795
COC(=O)[C@@]1(Cc2ccc(F)cc2)[C@H]2c3cc(C(=O)N4CCCC4)n(CCCNc4ncc(C(F)(F)F)cc4Cl)c3C[C@H]2CN1C(=O)c1ccccc1	0.728
C=CCNC(=O)[C@@H]1[C@H]2C(=O)O[C@H](c3ccccc3)[C@H](c3ccccc3)N2[C@H](c2ccc(O)cc2)[C@@]12C(=O)N(C(=O)OCCOC)c1ccc(C#CCNC(N)=O)cc12	0.552
CN(C)C(=O)[C@]1(Cc2ccccc2N=[N+]=[N-])N=C(c2ccc(OCCCO)cc2)O[C@@H]1c1ccccc1N=[N+]=[N-]	0.556

Task: composite z-score lookup needed for O=C1O[C@@H](c2ccccc2)[C@@H](c2ccccc2)N2[C@@H](c3ccccc3OCCO)[C@]3(C(=O)Nc4ccc(C#CC5=CCCCC5)cc43)[C@@H](C(=O)N3CCCCCCC3)[C@H]12 , thanks.
Result: 1.04

Task: composite z-score lookup needed for CO[C@H]1O[C@H](CO)[C@@H](OC(=O)Nc2cccc(F)c2)[C@H](OC(=O)Nc2ccccc2)[C@@H]1OC(=O)Nc1ccccc1 , thanks.
Result: 0.555

Task: composite z-score lookup needed for Cc1ccc(S[C@]2(C(=O)O)CC(=O)N(C(C)C)[C@@H]2c2ccc(CO)cc2I)cc1 , thanks.
Result: 0.566

Task: composite z-score lookup needed for C=CC[C@@]1(C(=O)NCCN2CCOCC2)N=C(c2ccc(OCCCO)cc2)O[C@@H]1c1ccccc1N=[N+]=[N-] , thanks.
Result: 0.716

Task: composite z-score lookup needed for CN1C=C(C(=O)OCCS(C)(=O)=O)C(C(=O)OCCS(C)(=O)=O)=CC(c2ccc(CO)cc2)=CC1C1CC1 (centres undefined) , thanks.
Result: 0.497

Task: composite z-score lookup needed for CCCCN1CC=CC23O[C@@H]4C=CCCOC(=O)C4[C@H]2C(=O)N(CCCCCCO)[C@@H]3C1=O (some centres undefined) , thanks.
Result: 0.876

Task: composite z-score lookup needed for COC(=O)[C@@]1(Cc2ccc(OC)cc2)[C@H]2c3cc(C(=O)N(C)C)n(Cc4ccccn4)c3C[C@H]2CN1C(=O)c1ccccc1 , thanks.
Result: 0.89

Task: composite z-score lookup needed for O=C1NC(=O)C2C1C=CC(C(O)c1cc(C(F)(F)F)cc(C(F)(F)F)c1)N2Nc1ccccn1 (centres undefined) , thanks.
Result: 0.673

---

assay: small-molecule microarray binders of probe aWnt5a, primary screen, biochemical, biotinylated probe, 635/667 nm fluorescence (AID 1113); conditions: higher = more signal;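 further: score merges 667 nm fluorescence intensity with signal-to-noise per printed feature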
Consider the following compounds and their measured composite z-score readings.
// no unit, no text: just the number

compound	composite z-score
C=C(CCCC)C(=O)CC[C@@H](OC(=O)c1ccccc1-c1ccccc1C(=O)O)c1ccc(OCCO)cc1	-0.096
CNS(=O)(=O)c1ccc(C)cc1	-0.169
C=CCC(OC(C)=O)[C@@H]1[C@@H](N(Cc2ccc(-c3ccccc3)cc2)C(=O)c2cccc3ccccc23)c2cc(OCCCO)ccc2N1C(=O)c1ccc(-c2ccccc2)cc1 (stereo partly drawn)	-0.187
CC1(C)[C@@H]2CC(C(O)C3C=CC4C(=O)N(Cc5ccccc5)C(=O)C4N3n3cnnc3)=C[C@H]1C2 (stereo partly drawn)	0.0374
CN(C)C(=O)[C@]1(Cc2ccccc2N=[N+]=[N-])N=C(c2ccc(OCCCO)cc2)O[C@@H]1c1ccccc1N=[N+]=[N-]	-0.0179
Cc1ccc(S[C@]2(C(=O)NCCCN(C)C)CC(=O)N(Cc3cc(C(F)(F)F)cc(C(F)(F)F)c3)[C@@H]2c2ccc(CO)cc2I)cc1	0.299
COCCOC(=O)N1C(=O)[C@@]2(c3cc(C#CC4(O)CCCCCC4)ccc31)[C@H](c1ccc(OCCO)cc1)N1[C@H](c3ccccc3)[C@H](c3ccccc3)OC(=O)[C@H]1[C@@H]2C(=O)N1CCN(c2ncccn2)CC1	0.0044
COC(=O)[C@@]1(CCC(=O)OC(C)(C)C)N=C(c2ccc(OCCCO)cc2)O[C@H]1c1ccccc1N=[N+]=[N-]	0.0101

Moving on to the next compound.
Task: composite z-score lookup needed for COC(=O)C(CC#Cc1ccc2c(c1)[C@]1(C(=O)N2)[C@H](C(=O)Nc2nc3ccccc3s2)[C@H]2C(=O)O[C@H](c3ccccc3)[C@H](c3ccccc3)N2[C@@H]1c1ccccc1OCCO)C(=O)OC , thanks.
Result: -0.0346
